Molecular target: T1, recombinant human Ang2-FLD (human, UniProt O15123 275-496, limits assumed)
T1 construct: domain: FLD; not used
T1 sequence (looked up): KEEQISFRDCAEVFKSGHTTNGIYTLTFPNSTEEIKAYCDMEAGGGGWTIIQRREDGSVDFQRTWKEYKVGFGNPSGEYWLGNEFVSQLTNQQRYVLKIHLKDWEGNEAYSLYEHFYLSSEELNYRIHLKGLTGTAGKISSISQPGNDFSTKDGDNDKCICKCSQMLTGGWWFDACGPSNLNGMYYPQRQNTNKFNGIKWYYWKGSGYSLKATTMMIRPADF
Assay: ProteOn off-rate assay, periplasmic extract 1:10 over coated human Ang2-FLD
propertyMeasured: koff (s⁻¹)
Answer format: numeric, s⁻¹ implied, no suffix.

Task item: If you can, please state the reported koff value of VHH 64G11 (VHH, periplasmic extract; not shown: C-terminal c-myc tag and His6 tag) VHH: EVQLVESGGGLVQAGGSLRLSCAASGITLDDYAIGWFRQAPGKERVGVSSIRDNDGSTYYADSVKGRFTISSDNDKNTVYLQMNSLKPEDTAVYYCAAVPAGRLRFGEQWYPIYEYDAWGQGTLVTVSS .
Reply: 0.00012

Task item: If you can, please state the reported koff value of VHH 56A07 (VHH, periplasmic extract; not shown: C-terminal c-myc tag and His6 tag) VHH: EVQLVESGGGLVQAGGSLRLSCAASGFTLDDYAIGWFRQAPGKEREGVSSIRDNDGSTYYADSVKGRSTISSDNARNTVFLQMNSLKPEDTAVYYCAAVPAGRLRFGEQWYPIYEYDAWGQGTLVTVSS .
Reply: 0.00015

Task item: If you can, please state the reported koff value of VHH 60C09 (VHH, periplasmic extract; not shown: C-terminal c-myc tag and His6 tag) VHH: EVQLVESGGGLVQAGGSLRLSCAVSGITLDDYAIGWFRQAPGKEREGVSSIRDNDGSTYYADSVKWRFTISSDNDKNTVYLQMNSMKPEDTAVYYCAAVPAGRLRFGEQWYPIYEYDAWGQGILVTVSS .
Reply: 0.00016

Task item: If you can, please state the reported koff value of VHH 64B02 (VHH, periplasmic extract; not shown: C-terminal c-myc tag and His6 tag) VHH: EVQLVESGGGLVQAGGFLRLTCAVSGFTLDDYAIGWFRQAPGKEREGVSSIRDNDGSTYYADSVKGRFTISSDNVKNTVYLQMNSLKPEDTAVYYCAAVPAGRLRFGEQWYPIYEYDAWGQGTLVTVSS .
Reply: 0.00014

Task item: If you can, please state the reported koff value of VHH 64G02 (VHH, periplasmic extract; not shown: C-terminal c-myc tag and His6 tag) VHH: EVQLVESGGGLVQAGGSLRLSCAISGFTLVDYAIGWFRQAPGKEREGVSSIRDNDGSTYYADSVKGRFIISSDNDKNTVYLQMNSLKPEDTAVYYCAAVPAGRLRFGEQWYPIYEYDAWGQGTLVTVSS .
Reply: 0.00012

Task item: If you can, please state the reported koff value of VHH 64A03 (VHH, periplasmic extract; not shown: C-terminal c-myc tag and His6 tag) VHH: EVQLLESGGGLVQAGGSLRLSCAASGFTLDDYAIGWFRQAPGKEREGVSSIRDNDGSTYYADSVKGRFTISSDNDKNTVYLQMNSLKPEDTAVYYCAAVPAGRLRIGEQWYPIYEYDAWGQGTLVTVSS .
Reply: 0.00014

Task item: If you can, please state the reported koff value of VHH 64B01 (VHH, periplasmic extract; not shown: C-terminal c-myc tag and His6 tag) VHH: EVQLVESGGGLVQAGGTLRLSCAVSGFTLDDYAIGWFRQAPGKEREGVSSIRDNDGSTYYADSVKGRFTISSDNDKNTVYLQMNSLKPEDTAVYYCAAVPAGRLRFGEQWYPIYEYDAWGQGILVTVSS .
Reply: 0.00014

Task item: If you can, please state the reported koff value of VHH 64D11 (VHH, periplasmic extract; not shown: C-terminal c-myc tag and His6 tag) VHH: EVQLVESGGGQAQAGGSLRLSCAVSGFTLDDYAIGWFRQAPGKEREGVSSIRDNDGSTYYTDSVKGRFTISSDNDKNTVYLQMNSLKPEDTAVYYCAAVPAGRLRFGEQWYPIYEYDAWGQGTLVTVSS .
Reply: 0.00011

Task item: If you can, please state the reported koff value of VHH 64E12 (VHH, periplasmic extract; not shown: C-terminal c-myc tag and His6 tag) VHH: EVQLVESGGGLVQAGGSLRLSCAVSGFTLDDYAIGWFRQAPGKEREGVSSIRDNDGSTYYADSVKGRSTISSDNDKNTVYLQMNSLKPEDTAVYYCAAVPAGRLRFGEQWYPIYEYDAWGQGTLVTVSS .
Reply: 0.00013
